Values compiled from patent EP0866075B1.

biological target: enzyme I (phosphoenolpyruvate-protein phosphotransferase, EC 2.7.3.9) of the E. coli phosphotransferase system (E. coli, UniProt P08839 1-575); test: cell-based or functional assay
No end group written: not given here.
In this section, each of the binders is paired with its reported inhibition IC50.
Expressed in µM, but write only the number.

Below: 4 binders and their reported inhibition IC50.
{"binder": "DGARLHYLF [peptide 22 DGARLHYLF]", "property.label": "inhibition IC50", "unit.label": "µM", "endpoint.value": 1200}
{"binder": "RHYLLF [peptide 26 RHYLLF]", "property.label": "inhibition IC50", "unit.label": "µM", "endpoint.value": 500}
{"binder": "KISRHGKRGK [peptide 18 KISRHGKRGK]", "property.label": "inhibition IC50", "unit.label": "µM", "endpoint.value": 140}
{"binder": "RIHFIPRRGR [peptide 20 RIHFIPRRGR]", "property.label": "inhibition IC50", "unit.label": "µM", "endpoint.value": 280}

IN: Specify inhibition IC50 for RHRTLF [peptide 25 RHRTLF] and stop.
OUT: 410

IN: Specify inhibition IC50 for SGRKSTRVHHWLLVL (not fully specified (residue 11)) [peptide 15 SGRKSTRVHHWLLVL] and stop.
OUT: 60

IN: Specify inhibition IC50 for GLRFGKTRVHYLVLG [peptide 14 GLRFGKTRVHYLVLG] and stop.
OUT: 25

IN: Specify inhibition IC50 for MRLLKTLCFGLCG [peptide 31 MRLLKTLCFGLCG] and stop.
OUT: 3500
